Test system: isolated rat liver mitochondria
experiment_notes: Mitochondrial swelling (absorbance at 535 nm)
Type: biochemical
particulars: 30XCmax; difference in signal between KI and DMSO treated samples at the end of experiments
Swelling 30XCmax for assorted compounds
recorded_endpoint: Swelling 30XCmax

compound	observed_result
Cc1ccc(C(=O)Nc2ccc(CN3CCN(C)CC3)c(C(F)(F)F)c2)cc1C#Cc1cnc2cccnn12 [Ponatinib]	0
CCCS(=O)(=O)Nc1ccc(F)c(C(=O)c2c[nH]c3ncc(-c4ccc(Cl)cc4)cc23)c1F [Vemurafenib]	0
CC(C)(C)c1nc(-c2cccc(NS(=O)(=O)c3c(F)cccc3F)c2F)c(-c2ccnc(N)n2)s1 [Dabrafenib]	0.46
CC(=O)Nc1cccc(-n2c(=O)n(C3CC3)c(=O)c3c(Nc4ccc(I)cc4F)n(C)c(=O)c(C)c32)c1 [Trametinib]	0

###

Tested on: RCC I–V
experiment_notes: Activities of RCC I–V, overall statements
Assay type: biochemical, rat
particulars: submitochondrial particles
Method: KIs were incubated with submitochondrial particles (1 mg/ml) for 15 min and then RCC I–V activities measured. […] The activities of DMSO-treated samples (controls) were set as 1. […] For measuring RCC I/V and II activity, the changes in absorbance at 340 and 600 nm, respectively, were determined every 1 min for 6 min. For measuring RCC III and RCC IV, the changes in absorbance at 550 nm were measured every 10 s for 2 min.
compounds and their reported lowest concentration inhibiting RCCs

chem_smiles	measure_unit	lowest concentration inhibiting RCCs
CNC(=O)c1cc(Oc2ccc(NC(=O)Nc3ccc(Cl)c(C(F)(F)F)c3)c(F)c2)ccn1	fold Cmax	10
C#Cc1cccc(Nc2ncnc3cc(OCCOC)c(OCCOC)cc23)c1	fold Cmax	10

###

Below, each entry is listed alongside its reported RCC II at 30XCmax.
system_under_test: RCC II (Rattus norvegicus, UniProt P21913+Q641Z9+Q6PCT8+Q920L2)
Construct: Submitochondrial particles were prepared by subjecting the intact mitochondria to three successive freeze–thaw cycles; from tissue; host or cells: rat liver mitochondria, used as submitochondrial particles
Sequence (Q920L2 35-656): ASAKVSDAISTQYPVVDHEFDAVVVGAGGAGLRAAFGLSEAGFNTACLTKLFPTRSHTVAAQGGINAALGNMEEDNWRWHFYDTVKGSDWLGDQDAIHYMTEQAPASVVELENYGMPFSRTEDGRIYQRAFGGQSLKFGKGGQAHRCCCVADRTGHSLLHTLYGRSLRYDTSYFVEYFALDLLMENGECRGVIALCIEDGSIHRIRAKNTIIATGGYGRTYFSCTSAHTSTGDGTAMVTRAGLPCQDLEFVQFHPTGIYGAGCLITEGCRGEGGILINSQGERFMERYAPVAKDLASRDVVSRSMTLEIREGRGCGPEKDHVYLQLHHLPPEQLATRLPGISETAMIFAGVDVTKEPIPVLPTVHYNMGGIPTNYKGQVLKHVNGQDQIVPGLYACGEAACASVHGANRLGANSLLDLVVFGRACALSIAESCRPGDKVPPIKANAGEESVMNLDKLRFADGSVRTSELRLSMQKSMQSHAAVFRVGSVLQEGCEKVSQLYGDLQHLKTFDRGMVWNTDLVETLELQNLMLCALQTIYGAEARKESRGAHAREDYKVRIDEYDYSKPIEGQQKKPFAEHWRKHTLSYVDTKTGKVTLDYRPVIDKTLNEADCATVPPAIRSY
Sequence (P21913 31-282): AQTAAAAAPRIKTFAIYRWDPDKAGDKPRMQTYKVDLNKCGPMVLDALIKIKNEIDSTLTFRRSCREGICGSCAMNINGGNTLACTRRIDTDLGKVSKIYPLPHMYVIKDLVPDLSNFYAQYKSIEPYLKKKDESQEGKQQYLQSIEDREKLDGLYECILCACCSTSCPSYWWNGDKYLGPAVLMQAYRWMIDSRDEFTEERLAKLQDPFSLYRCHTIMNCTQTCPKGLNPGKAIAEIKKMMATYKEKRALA
Sequence (Q641Z9 1-169): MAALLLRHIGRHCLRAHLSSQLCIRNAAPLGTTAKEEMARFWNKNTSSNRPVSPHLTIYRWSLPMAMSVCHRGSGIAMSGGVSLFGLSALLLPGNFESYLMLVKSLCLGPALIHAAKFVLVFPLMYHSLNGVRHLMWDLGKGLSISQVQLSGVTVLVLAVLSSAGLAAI
Sequence (Q6PCT8 57-159): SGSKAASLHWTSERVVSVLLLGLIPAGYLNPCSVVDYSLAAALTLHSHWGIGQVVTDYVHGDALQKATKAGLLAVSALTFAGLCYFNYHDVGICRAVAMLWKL
experiment_notes: RCC II activity in submitochondrial particles
Assay type: biochemical
Parameters: key: activity relative to DMSO-treated controls (control set as 1 = 100%)
particulars: 30XCmax; DMSO treated samples set as 1

molecule	system_under_test	RCC II at 30XCmax
CC[C@H](Nc1ncnc2[nH]cnc12)c1nc2cccc(F)c2c(=O)n1-c1ccccc1	RCC II (Rattus norvegicus, UniProt P21913+Q641Z9+Q6PCT8+Q920L2)	0
COc1cc2nccc(Oc3ccc(NC(=O)C4(C(=O)Nc5ccc(F)cc5)CC4)cc3)c2cc1OC [cabozantinib malate]	RCC II (Rattus norvegicus, UniProt P21913+Q641Z9+Q6PCT8+Q920L2)	79.26
Cc1cc(Nc2ncc(Cl)c(Nc3ccccc3S(=O)(=O)C(C)C)n2)c(OC(C)C)cc1C1CCNCC1	RCC II (Rattus norvegicus, UniProt P21913+Q641Z9+Q6PCT8+Q920L2)	0
CC(=O)c1c(C)c2cnc(Nc3ccc(N4CCNCC4)cn3)nc2n(C2CCCC2)c1=O.Cl [palbociclib hydrochloride]	RCC II (Rattus norvegicus, UniProt P21913+Q641Z9+Q6PCT8+Q920L2)	0
COC(=O)c1ccc2c(c1)NC(=O)/C2=C(\Nc1ccc(N(C)C(=O)CN2CCN(C)CC2)cc1)c1ccccc1	RCC II (Rattus norvegicus, UniProt P21913+Q641Z9+Q6PCT8+Q920L2)	0
